- Measurement target: T1, Cynomolgus monkey DLL3 on HEK293 cells (HEK293-cyno DLL3) (Cynomolgus monkey, UniProt Q9NYJ7 27-618 (human entry))
- T1 chain: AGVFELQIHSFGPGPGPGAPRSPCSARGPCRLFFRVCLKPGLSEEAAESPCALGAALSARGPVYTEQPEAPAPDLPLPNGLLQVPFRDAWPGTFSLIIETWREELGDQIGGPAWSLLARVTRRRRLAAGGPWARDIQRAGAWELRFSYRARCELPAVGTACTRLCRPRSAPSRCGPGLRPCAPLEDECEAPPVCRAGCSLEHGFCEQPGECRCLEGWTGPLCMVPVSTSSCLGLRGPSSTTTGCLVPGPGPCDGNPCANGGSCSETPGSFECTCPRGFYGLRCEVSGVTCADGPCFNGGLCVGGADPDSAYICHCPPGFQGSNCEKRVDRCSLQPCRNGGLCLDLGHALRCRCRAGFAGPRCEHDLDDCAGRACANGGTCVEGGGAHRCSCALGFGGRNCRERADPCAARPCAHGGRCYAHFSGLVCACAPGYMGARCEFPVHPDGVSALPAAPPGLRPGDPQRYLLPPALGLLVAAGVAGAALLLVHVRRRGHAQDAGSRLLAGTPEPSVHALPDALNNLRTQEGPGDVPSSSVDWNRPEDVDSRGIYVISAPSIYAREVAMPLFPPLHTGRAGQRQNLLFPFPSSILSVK
- Experiment summary: flow cytometry, HEK293-cyno DLL3 cells
Measurement name: Top MFI (MFI)
API: value field is a number in MFI; no unit string.

See these solved cases before continuing.
DLL3-276 camelid-derived anti-DLL3 chimeric antibody (antibody, human IgG1, V domains shown) VH: QVQLVESGGGSVQAGGSLNLSCATSGSTASTTYMGWFRQAPGKGREGVAIIYTARDNPWYANSVKGRFIISQDNAKKTLYLQMNTLKPEDTATYYCAATLANPTRTAWGQGTLVTVSS | 175
DLL3-3 camelid-derived anti-DLL3 chimeric antibody (antibody, human IgG1, V domains shown) VH: DVQLVESGGGSVQAGGSLKLSCKSPTYTISSGYMGWFRQAPGKEREGVAAIYIGGSTTLYADSVKGRFTISADNAEKTVYLQMNTLKPEDSAMYYCAAQLRPNSAYHPLDGRKYNYWGQGTQVTVSS | 438
DLL3-122 camelid-derived anti-DLL3 chimeric antibody (antibody, human IgG1, V domains shown) VH: QVQLVESGGGSVQAGGSLRLSCTASGDTYRSYCMGWFRKAPGKEREGVADIVSDGSTSYADSVKGRFTISKDNAKNTLYLQMNSLKPEDTAMYYCAVDRGGSGGYCYTGRYDYWGQGTQVTVSS | 460
DLL3-26 camelid-derived anti-DLL3 chimeric antibody (antibody, human IgG1, V domains shown) VH: QVQLVESGGGSVQAGGSLRLSCAASGDIYSSSYVGWFRQAPGKEREGVAIIYTSGDSTYYANSVKGRFTISQDKAKKTLYLQMNSLKPEDTAMYYCAARFAIDNSNYWGQGTQVTVSS | 450

Shift focus to the following entry.
Qu. Top MFI for DLL3-12 camelid-derived anti-DLL3 chimeric antibody (antibody, human IgG1, V domains shown) VH: QVQLVESGGGLVQPGESLRLSCAGSGFAFSSYDMHWVRQAPGKDFEWVSSISRDGRGPRYADFVKGRFTISKDNGRNMLYLQLNSLEIEDTAMYYCSKGYPIMGGTTQGTQVTVSS ?
Ans. 220
